test: P. aeruginosa biofilm formation inhibitors, primary screen, strain PAO1, LB-PBS medium, absorbance 600 nm (AID 1176); also: test concentration not given here; conditions: P. aeruginosa PAO1 growth/biofilm, A600, 12 h; higher = more signal
Form field: z-score (one value per entry).
# respond with the number and nothing more

# example entries with known answers
z-score for CCOc1cc(C(O)C2C=CC3C(=O)N(C)C(=O)C3N2Nc2ccccc2)ccc1O (stereo not given) is 0.807

z-score for COC(=O)C1=CC(CCCO)=CC(C2CC2)N(C)C=C1C(=O)OC (stereo not given) is 0.82

z-score for `C[N+](C)(C)CCCC[C@@H]1NC(=O)[C@H]2C[C@@H](C(=O)NCCCCCCN)[C@@H](c3ccc(O)cc3)N2C1=O` is -0.515

z-score for `C=C(/C(=C/C[C@H](OC(C)=O)c1cccc(OCCO)c1)c1cnc2ccccc2c1)C(C)C` is -0.0099

Continuing:
z-score for `CCCCCCc1nc(C2CC2)cc2c1[Si](C(C)C)(C(C)C)O[C@H]2c1ccccc1` is 0.0672

----------
assay: A549 lung cancer cell viability effects, profiling panel, resazurin fluorescence, 24 h, PK04 Diversity Set (AID 1171); settings: higher = more signal, called active from +8 up or from −8 down; also: test concentration not given here
Entry flag: Satisfied if z-score reaches -0.08; Not satisfied if it does not.

Example entries begin here.
Given `CCCCCCc1nc(C2CC2)cc2c1[Si](C(C)C)(C(C)C)OC2` , state whether its z-score is at least -0.08.
Not satisfied

Given C[C@@H]1NC(=O)[C@@]23C(=O)N[C@@H](Cc4ccccc4)C2[C@H](C)[C@@]2(C)O[C@H]2C3/C=C/C/C=C\CNC(=O)[C@@H]2CCCN2C1=O (some centres not stated) , state whether its z-score is at least -0.08.
Satisfied

Given `COC(=O)[C@@]1(Cc2ccccc2)[C@H]2c3cc(C(=O)N(C)C)n(Cc4c(CO)[nH]cc(C)c4=O)c3C[C@H]2CN1C(=O)c1ccccc1` , state whether its z-score is at least -0.08.
Not satisfied

Given `COC(=O)Cn1c(C(=O)N(C)C)cc2c1C[C@H]1CN(C(=O)c3ccccc3)[C@@](Cc3ccc(F)cc3)(C(=O)OC)[C@@H]21` , state whether its z-score is at least -0.08.
Not satisfied

Given `C=C(COC)/C(=C/C[C@H](OC(C)=O)c1ccc(OCCO)cc1)c1cc(C(=O)OC)ccc1OC` , state whether its z-score is at least -0.08.
Satisfied

Turning to the following compound.
Given C=CCC(OC(C)=O)[C@@H]1[C@@H](N(Cc2cc3ccccc3o2)C(=O)Cc2ccc(F)cc2)c2cc(OCCCO)ccc2N1C(=O)c1ccc2ccccc2c1 (some centres not stated) , state whether its z-score is at least -0.08.
Satisfied

----------
assay: small-molecule microarray binders of probe aXIP, primary screen, biochemical, NeuroSMM set, 635/667 nm fluorescence (AID 1119); details: higher = more signal, called active from +8 up or from −8 down;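 also: probe is the protein aXip251-270 applied at 1 µg/mL to compound-printed slides; binding of probe to printed compounds measured as 667 nm fluorescence plus signal to noise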
Form field: composite Z-score (one value per entry).
# respond with the number and nothing more

composite Z-score for COc1ccc(C(O)C2C=CC3C(=O)N(c4ccccc4)C(=O)C3N2Nc2ccc([N+](=O)[O-])cc2)cc1 (configuration not stated) is 1.19

composite Z-score for `NC(=O)NCC#Cc1ccc2c(c1)[C@]1(C(=O)N2)[C@H](C(=O)O)[C@H]2C(=O)O[C@H](c3ccccc3)[C@H](c3ccccc3)N2[C@@H]1c1ccc(OCCO)cc1` is -0.131

composite Z-score for `CCCC[C@@H]1C[C@H]1[C@@H](NC(=O)Cc1ccccc1)c1ccc(-c2ccccc2)cc1` is 0.378

composite Z-score for `COC(=O)[C@@]1(Cc2ccc(OC)cc2)[C@H]2c3cc(C(=O)N(C)C)n(Cc4ccc(Cl)c(C(F)(F)F)c4)c3C[C@H]2CN1C(=O)c1ccccc1` is 0.579

Continuing:
composite Z-score for `CCOC(=O)C1=C[C@@H](c2ccccc2)N(S(=O)(=O)c2ccc(C)cc2)[C@H]1c1ccccc1Cl` is 0.0277

composite Z-score for `COCCCNC(=O)[C@@]1(Cc2ccccc2N=[N+]=[N-])COC(c2ccc(OCCCO)cc2)=N1` is 0.889

composite Z-score for COC1OC[C@]2(C)[C@H]3C4=C(CN2C(=O)OC(C)(C)C)[C@H](C)C(CO)C(CO)C4CC[C@@H]13 (some centres not stated) is 0.0112
